- Test system: Enterobacter cloacae IFO 12937
- experiment-description: MIC by agar dilution method (Experimental Example)
- Assay type: cell-based
- particulars: IFO12937; test organism (1) Enterobacter cloacae IFO 12937; Trypticase soy agar; inoculum about 10^8 CFU/ml; overnight culture at 37°C; complete growth inhibition
assay-metric: MIC (µg/mL)

# compound, MIC (µg/mL)
records = [
    ("COC(=O)CC[C@@H]1[C@H](NC(=O)/C(=N\\OC(C)(C)C(=O)O)c2csc(N)n2)C(=O)N1S(=O)(=O)O (relative stereo)", 6.25),
    ("C[S+]([O-])C[C@@H]1[C@H](NC(=O)/C(=N\\OC(C)(C)C(=O)O)c2csc(N)n2)C(=O)N1S(=O)(=O)O (relative stereo)", 3.13),
    ("CON=C(C(=O)NC1C(=O)N(S(=O)(=O)O)C1CC(C)=O)c1csc(N)n1 (stereo not shown)", 3.13),
    ("CC(=O)CC1C(NC(=O)C(=NOC(C)(C)C(=O)O)c2csc(N)n2)C(=O)N1S(=O)(=O)O (stereo not shown)", 12.5),
]

I = CC(C)(O/N=C(\C(=O)N[C@@H]1C(=O)N(S(=O)(=O)[O-])[C@@H]1C[n+]1ccccc1)c1csc(N)n1)C(=O)O (relative stereo)
II = CC(C)(O/N=C(\C(=O)N[C@@H]1C(=O)N(S(=O)(=O)O)[C@@H]1CNC(N)=O)c1csc(N)n1)C(=O)O (relative stereo)
III = CO/N=C(\C(=O)N[C@@H]1C(=O)N(S(=O)(=O)O)[C@H]1CC(C)=O)c1csc(N)n1
Lookup: Sort by MIC, descending. Form field (ranking): labels in requested order.
Found: II, III, I
(II: 12.5 µg/mL, III: 6.25 µg/mL, I: 3.13 µg/mL)
